// IC50 lookup, one value per entry
System: plasma LPA 18:1 and LPA 18:2
Assay: Human plasma ex vivo assay (LPA 18:1 / 18:2 by LC-MS/MS)
Assay type: biochemical
Settings: 37° C., 2 hours, LPA 18:1, read-out: Human plasma ex vivo assay IC50 (18:1 LPA)
Method: The collected plasma was centrifuged at 4000 rpm for 15 minutes at 4° C. The supernatant was aliquoted into a 96-well plate (25 μL per well), sealed, and frozen at −80° C. for further use. […] f) All the samples were mixed well with a pipette, and centrifuged at 4000 rpm for 10 minutes at 4° C. […] The contents of LPA 18:1 and LPA 18:2 in the samples were detected by LC-MS/MS system. […]
MEASURE: IC50 (nM)

>>> df
                                    compound           experimental_system  measure  value_measured
 0  CN(c1nc(-c2ccc(F)cc2)c(C#N)s1)c1c2c(nc3c(F)cc(N4CC5(CN(C(=O)C6CCCC6)C5)C4)cc13)C(O)CC2 (centres unmarked)  plasma LPA 18:1 and LPA 18:2     IC50             462
 1  CN(c1nc(-c2ccc(F)cc2)c(C#N)s1)c1c2c(nc3c(F)cc(N4CC5(CN(C(=O)C(C)(C)O)C5)C4)cc13)[C@@H](O)CC2 (single isomer, unassigned)  plasma LPA 18:1 and LPA 18:2     IC50             381
 2  C[C@H]1CN(CC(=O)N2CC(O)C2)CCN1c1cc(F)c2nc3c(c(N(C)c4nc(-c5ccc(F)cc5)c(C#N)s4)c2c1)CCC3O (some centres unmarked)  plasma LPA 18:1 and LPA 18:2     IC50             149
 3  CN(c1nc(-c2ccc(F)cc2)c(C#N)s1)c1c2c(nc3c(F)cc(N4CCN(CC(=O)N5CC(C)(O)C5)CC4)cc13)C(O)CC2 (centres unmarked)  plasma LPA 18:1 and LPA 18:2     IC50             139
 4  CN(c1nc(-c2ccc(F)cc2)c(C#N)s1)c1c2c(nc3ccc(N4CCN(CC(=O)N5CC(O)C5)CC4)cc13)CC2  plasma LPA 18:1 and LPA 18:2     IC50            74.2
 5  CN(c1nc(-c2ccc(F)cc2)c(C#N)s1)c1c2c(nc3c(F)cc(N4CCN(CC(=O)N5CC(O)C5)CC4)cc13)COC2  plasma LPA 18:1 and LPA 18:2     IC50             118
 6  CN(c1nc(-c2ccc(F)cc2)c(C#N)s1)c1c2c(nc3c(F)cc(N4CC5(CCN(CC(=O)N6CC(O)C6)CC5)C4)cc13)CCC2  plasma LPA 18:1 and LPA 18:2     IC50             299
 7  Cc1cc(N2CC3(CN(C(=O)C(C)(C)O)C3)C2)nc2c(N(C)c3nc(-c4ccc(F)cc4)c(C#N)s3)c3c(nc12)[C@H](O)CC3 (single isomer, unassigned)  plasma LPA 18:1 and LPA 18:2     IC50             373
 8  Cc1cc(N2CC3(CN(C(=O)C(C)(C)O)C3)C2)nc2c(N(C)c3nc(-c4ccc(F)cc4)c(C#N)s3)c3c(nc12)C(O)CC3 (centres unmarked)  plasma LPA 18:1 and LPA 18:2     IC50             202
 9  CN(c1nc(-c2ccc(F)cc2)c(C#N)s1)c1c2c(nc3c(F)cc(N4CC5(CN(C(=O)[C@H]6CCCN6C)C5)C4)cc13)C(O)CC2 (some centres unmarked)  plasma LPA 18:1 and LPA 18:2     IC50             583
10  Cc1cc(N2CC3(CN(C(=O)C(C)(C)O)C3)C2)nc2c(N(C)c3nc(-c4ccc(F)cc4)c(C#N)s3)c3c(nc12)C(C)(O)CC3 (centres unmarked)  plasma LPA 18:1 and LPA 18:2     IC50             379
11  CN(c1nc(-c2ccc(F)cc2)c(C#N)s1)c1c2c(nc3c(F)cc(N4CCN(C(=O)[C@H]5CCOC5)CC4)cc13)CCC2  plasma LPA 18:1 and LPA 18:2     IC50             354
12  CN(c1nc(-c2ccc(F)cc2)c(C#N)s1)c1c2c(nc3c(F)cc(N4CC5(CN(CC(=O)N6CC(CO)C6)C5)C4)cc13)CC2  plasma LPA 18:1 and LPA 18:2     IC50             162
13  CN(c1nc(-c2ccc(F)cc2)c(C#N)s1)c1c2c(nc3c(F)cc(N4CC5(CN(CC(=O)N6CC[C@@H](O)C6)C5)C4)cc13)C(O)CC2 (some centres unmarked)  plasma LPA 18:1 and LPA 18:2     IC50             222
14  CN(c1nc(-c2ccc(F)cc2)c(C#N)s1)c1c2c(nc3ccc(N4CCN(CC(=O)N5CC(O)C5)CC4)cc13)CCC2  plasma LPA 18:1 and LPA 18:2     IC50             183
15  CN(c1nc(-c2ccc(F)cc2)c(C#N)s1)c1c2c(nc3c(F)cc(N4CCC5(CCN(C(=O)[C@@H]6CCOC6)CC5)C4)cc13)CCC2  plasma LPA 18:1 and LPA 18:2     IC50             285
16  CN(c1nc(-c2ccc(F)cc2)c(C#N)s1)c1c2c(nc3c(F)cc(N4CC5(CN(C(=O)C6CCOCC6)C5)C4)cc13)C(O)CC2 (centres unmarked)  plasma LPA 18:1 and LPA 18:2     IC50             281

----------
// IC50 lookup, one value per entry
Molecular target: ATX (Homo sapiens (Human), UniProt Q13822)
Experiment: ATX enzyme inhibition assay (Amplex UltraRed/choline oxidase/HRP, 16:0 Lyso PC substrate)
Assay type: biochemical
Details: assay buffer pH 7.5; read-out: IC50 (nM) pH 7.5

COMPOUND	EXPERIMENTAL SYSTEM	IC50, nM
CN(c1nc(-c2ccc(F)cc2)c(C#N)s1)c1c2c(nc3ccc(N4CCN(CC(=O)N5CC(O)C5)CC4)nc13)CCO2 [Example A12]	ATX (Homo sapiens (Human), UniProt Q13822)	219
CN(c1nc(-c2ccc(F)cc2)c(C#N)s1)c1c2c(nc3ncc(N4CC5(CN(C(=O)[C@H]6CCOC6)C5)C4)cc13)CCC2 [Example C3]	ATX (Homo sapiens (Human), UniProt Q13822)	32
CN(c1nc(-c2ccc(F)cc2)c(C#N)s1)c1c2c(nc3ccc(N4CCN(CC(=O)N5CC(O)C5)CC4)nc13)CCC2 [Example A10]	ATX (Homo sapiens (Human), UniProt Q13822)	559
CN(c1nc(-c2ccc(F)cc2)c(C#N)s1)c1c2c(nc3ccc(N4CCN(CC(=O)N5CC(O)C5)CC4)cc13)CCC2 [Example A1]	ATX (Homo sapiens (Human), UniProt Q13822)	138
CN(c1nc(-c2ccc(F)cc2)c(C#N)s1)c1c2c(nc3ccc(N4CCN(CC(=O)N5CC(O)C5)CC4)cc13)COC2 [Example A2]	ATX (Homo sapiens (Human), UniProt Q13822)	624
CN(c1nc(-c2ccc(F)cc2)c(C#N)s1)c1c2c(nc3c(F)cc(N4CCC5(CC4)CN(CC(=O)N4CC(O)C4)C5)cc13)CCC2 [Example A6]	ATX (Homo sapiens (Human), UniProt Q13822)	318
CN(c1nc(-c2ccc(F)cc2)c(C#N)s1)c1c2c(nc3c(F)cc(N4CCC5(CCN(C(=O)[C@@H]6CCOC6)C5)C4)cc13)CCC2 (some centres unmarked) [Example C14]	ATX (Homo sapiens (Human), UniProt Q13822)	334
CN(c1nc(-c2ccc(F)cc2)c(C#N)s1)c1c2c(nc3c(F)cc(N4CC5(CN(CC(=O)N6CC(CO)C6)C5)C4)cc13)CCC2 [Example A25]	ATX (Homo sapiens (Human), UniProt Q13822)	541

----------
// pIC50 lookup, one value per entry
Tested on: plasma LPA 18:1 and LPA 18:2
Test: Human plasma ex vivo assay (LPA 18:1 / 18:2 by LC-MS/MS)
Type: biochemical
Settings: 37° C., 2 hours, LPA 18:1, read-out: Human plasma ex vivo assay IC50 (18:1 LPA)
pIC50: −log10 of the molar value.
MEASURE: pIC50

                                   compound  measure  value_measured
0  CN(c1nc(-c2ccc(F)cc2)c(C#N)s1)c1c2c(nc3ncc(N4CC5(CN(C(=O)[C@@H]6CCOC6)C5)C4)cc13)CCC2    pIC50            6.94
1  CN(c1nc(-c2ccc(F)cc2)c(C#N)s1)c1c2c(nc3ccc(N4CCN(S(C)(=O)=O)C[C@@H]4CO)cc13)CCC2    pIC50            6.75
2  CN(c1nc(-c2ccc(F)cc2)c(C#N)s1)c1c2c(nc3c(F)cc(N4CC5(CN(C(=O)CN6CC[C@@H](O)C6)C5)C4)cc13)C(O)CC2 (stereo partly shown)    pIC50            6.54
3  CN(c1nc(-c2ccc(F)cc2)c(C#N)s1)c1c2c(nc3c(F)cc(N4CC5(CN(C(=O)C6(N)CCOC6)C5)C4)cc13)C(O)CC2 (stereo not shown)    pIC50            6.17
